The origin of these recorded values is patent US20230340142A1.

Molecular target: T1, human PD-L1 (human, UniProt Q9NZQ7 19-238, limits assumed)
T1 construct: also called hPD-L1
T1 sequence (Q9NZQ7 19-238 limits assumed): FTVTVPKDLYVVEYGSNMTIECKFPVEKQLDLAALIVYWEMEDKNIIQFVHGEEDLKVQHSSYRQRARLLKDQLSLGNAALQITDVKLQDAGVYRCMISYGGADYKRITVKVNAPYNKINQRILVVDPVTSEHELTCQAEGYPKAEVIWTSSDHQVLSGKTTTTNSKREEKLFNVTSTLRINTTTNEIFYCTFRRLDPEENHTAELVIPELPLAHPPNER
Test: Octet-96 BLI; antigen not named, taken as human PD-L1
Property: pKd; scope: individual binders
Please treat pKd as minus the base-10 logarithm of the molar concentration.

ChVH5/ChVL1 (antibody, V domains shown, Humanized Clone C; constant regions (CH1-FC/CL) from the vector, expressed in 293F cells; also called humanized Clone C, Ch VH5 + Ch VL1) VH: QVQLVQSGAEVKKPGASVKVSCKASGFNIKDTYMHWVRQAPGQRLEWIGRIDPANGNTKYSQKFQGRVTITRDTSASTAYMELSSLRSEDTAVYYCARGLGRWFAYWGQGTTVTVSS VL: DIQMTQSPSSLSASVGDRVTITCKASQDVSNAVAWYQQKPGKAPKLLIYSASNRYTGVPDRFSGSGSGTDFTFTISSLQPEDIATYYCQQHDSTPLTFGQGTKLELK | 8.93

Output pKd of Chimeric D (antibody, V domains shown, also called chimeric Clone D) VH: EVQLQQSGPELVKPGASMKISCKASGYSFTGYTMNWVKQSHGKNLEWIGLIIPYNGGISYNQKFKDKATLTVDKSSSTAYMELLSLTSEDSAVYYCASLITTAPRDSMDYWGQGTSVTVSS VL: DIQMTQTTSSLSASLGDRVTISCRASQDISNYLNWYQQKPDGSVKLLIYYTSKLHSGVPSRFSGSGSGTDYSLTISNLEQEDIATYFCQQGDALPWTFGGGTKLEIK
8.43

Give the reported pKd for this binder. DhVH3/DhVL2 (antibody, V domains shown, Humanized Clone D; constant regions from the vector, 293F cells; also called humanized Clone D, Dh VH3 + Dh VL2) VH: QVQLVQSGAEVKKPGASVKVSCKASGYSFTGYTMNWVRQAPGQGLEWMGLIIPYNGGISYNQKFKDRVTMTVDTSISTAYMELSRLRSDDTAVYYCASLITTAPRDSMDYWGQGTLVTVSS VL: DIQMTQSPSSLSASVGDRVTITCRASQDISNYLNWYQQKPGKAPKLLIYYTSKLHSGVPSRFSGSGSGTDFTLTISSLQPEDIATYYCQQGDALPWTFGGGTKVEIK
8.78
